# System: CD2F1 mice, L1210 leukemia ip, survival T/C
# assay details: NCI In Vivo Anticancer Drug Screen. Data for tumor model L1210 Leukemia (intraperitoneal) in CD2F1 (CDF1) mice
# measurement setup: endpoint: mean survival time; dose: 10.0 mg/kg/injection; schedule: Q01DX009 (ip); vehicle: saline with Tween-80; higher = longer survival
Toxic doses and inconclusive results are not listed.
value kind: T/C

Answered cases to consult:
# input Item [B-][N+]1(C)CC[N+]([B-])(C)CC1 (stereo unspecified) has what recorded T/C?
# output 96 % of control

# input I have this compound here, CC1NC(=O)OC1(C)C(C)(C)C (stereo unspecified) , and I need its recorded T/C.
# output 104 % of control

# input Please report the recorded T/C for `CC1(C)N=C(N)N=C(N)N1c1ccc(CCCCc2cccc(S(=O)(=O)F)c2)c(Cl)c1` .
# output 103 % of control

# input Consider the compound CC1OC(=O)C(C(C)C)NC(=O)C(C(C)C)OC(=O)C(C(C)C)NC(=O)C(C)OC(=O)C(C(C)C)NC(=O)C(C(C)C)OC(=O)C(C(C)C)NC(=O)C(C)OC(=O)C(C(C)C)NC(=O)C(C(C)C)OC(=O)C(C(C)C)NC1=O (stereo unspecified) and give its measured T/C.
# output 106 % of control

# input Dear colleague, I am looking for the recorded T/C of the following compound: O=C1C=CC(=O)C2CC=CCC12 (stereo unspecified)
# output 103 % of control

# next compound below
# input Given the compound `O=C1C=CC(=Nc2ccccc2)O1` , what is its reported T/C?
# output 93 % of control

---

# Test system: CD2F1 mice, L1210 leukemia ip, survival T/C
# assay details: NCI In Vivo Anticancer Drug Screen. Data for tumor model L1210 Leukemia (intraperitoneal) in CD2F1 (CDF1) mice
# measurement setup: endpoint: mean survival time; dose: 200.0 mg/kg/injection; schedule: Q01DX001 (ip); vehicle: other; higher = longer survival
Inconclusive results and toxic doses are left out.
value kind: T/C

# input Any idea what its T/C is? The molecule is `c1ccc(Cn2cccc2N=Nc2ccccc2)cc1`
# output 101 % of control

Continuing:
# input Param item = `CCCCCCCCCC/C=C/C1=C(N=[N+]=N)C(=O)c2ccccc2C1=O` ; retrieve measured T/C.
# output 92 % of control

# input T/C lookup needed for `O=c1cn[nH]c2ccc(Br)cc12` , thanks.
# output 102 % of control

# input May I ask what T/C has been recorded for `O=c1c2[nH]cnc2ncn1C1CCCC1` ?
# output 100 % of control

# input Bench note: what T/C did `NC(=O)CSc1ccccc1` show?
# output 101 % of control

---

# Test system: CD2F1 mice, L1210 leukemia ip, survival T/C
# assay details: NCI In Vivo Anticancer Drug Screen. Data for tumor model L1210 Leukemia (intraperitoneal) in CD2F1 (CDF1) mice
# measurement setup: endpoint: mean survival time; dose: 12.5 mg/kg/injection; schedule: Q04DX003 (ip); vehicle: saline with Tween-80; higher = longer survival
Toxic doses and inconclusive results are not listed.
value kind: T/C

Examples from the recorded data:
# input Consider the molecule shown here: `COc1ccc2ccc[n+](C)c2c1` What is its recorded T/C?
# output 101 % of control

# input What value of T/C has been reported for the following molecule? `CS(=O)(=O)CC#N`
# output 97 % of control

New cases:
# input If you can, please state the reported T/C value of `NNC(=O)c1ccc(Cl)cc1Cl` .
# output 101 % of control

# input Report T/C for CC(=O)OC1CC2C[CH]([Hg][Cl])C1C2 (configuration not stated) please.
# output 111 % of control

# input Item `C=CC(=O)O` has what recorded T/C?
# output 91 % of control

# input Requested read-out: T/C. Entry: CCOC(=O)C([NH-])CC[NH-].[Cl][Pt+2][Cl] (configuration not stated)
# output 182 % of control

# input Fill in the blank: the reported T/C of `Cc1ccc([NH-])c(Cl)c1.Cc1ccc([NH-])c(Cl)c1.[Cl][Pt+2][Cl]` is ____.
# output 95 % of control
